Test system: Tetranychus urticae
METHOD NOTES: Tetranychus urticae spray test, OP-resistant
Type: in vivo
STATED CONDITIONS: foliar, 144 h, bean leaf discs, after 6 days, read-out: efficacy
MEASURED ATTRIBUTE: pest or weed control at 500 g/ha (%)
Kindly provide the numeric value in % only, without the unit symbol.

Sample answers from the record:
MOLECULE: Cc1nc(C(=O)NS(=O)(=O)c2cc(Cl)ccc2Cl)cn1-c1cc(F)cc(Cl)c1
MEASURED ATTRIBUTE: pest or weed control at 500 g/ha
REPORTED RESULT: 70
//
MOLECULE: O=C(NS(=O)(=O)c1ccccc1Cl)c1ncn(C2CC2C(F)(F)F)c1Cl (stereo not shown)
MEASURED ATTRIBUTE: pest or weed control at 500 g/ha
REPORTED RESULT: 90
//
MOLECULE: Cc1nc(C(=O)NS(=O)(=O)c2ccccc2)cn1Cc1ccccc1Cl
MEASURED ATTRIBUTE: pest or weed control at 500 g/ha
REPORTED RESULT: 90

Name the recorded pest or weed control at 500 g/ha of the item Cc1nc(C(=O)NS(=O)(=O)c2ccccc2Cl)cn1Cc1ccc(Cl)cc1 in your answer.
90

Consider the molecule COc1cccc(S(=O)(=O)NC(=O)c2ncn(CCC(F)(F)F)c2Cl)c1 and give its recorded pest or weed control at 500 g/ha.
90

Recall and state the measured pest or weed control at 500 g/ha for Cc1nc(C(=O)NS(=O)(=O)c2ccccc2)cn1-c1ccccc1F .
70

Using the record for O=C(NS(=O)(=O)c1ccccc1Cl)c1cn(-c2ccc(C(F)(F)F)cc2Cl)cn1 , state its measured pest or weed control at 500 g/ha.
70

====

Test system: Tetranychus urticae
METHOD NOTES: Tetranychus urticae spray test, OP-resistant
Type: in vivo
STATED CONDITIONS: foliar, 144 h, bean leaf discs, after 6 days, read-out: efficacy
Method: Tetranychus urticae—Spray Test, OP-Resistant To produce a suitable active compound preparation, 1 part by weight of active compound is dissolved with the specified parts by weight of solvent and made up to the desired concentration with water containing an emulsifier concentration of 1000 ppm. To produce further test concentrations, the formulation is diluted with emulsifier-containing water. […] After 6 days, the efficacy in % is determined. […]
Recorded pest or weed control at 500 g/ha, one value per entry.
Don't forget the unit after the value.

MOLECULE: COc1ccc(Cl)c(S(=O)(=O)NC(=O)c2ncn(-c3ccc(Cl)cc3)c2C(C)C)c1
pest or weed control at 500 g/ha: 80%
--
MOLECULE: COc1ccc(Cl)c(S(=O)(=O)NC(=O)c2cn(C)c(Cc3ccccc3)n2)c1
pest or weed control at 500 g/ha: 90%

Name the recorded pest or weed control at 500 g/ha of the item O=C(NS(=O)(=O)c1ccccc1)c1ncn(C2CC2C(F)(F)F)c1Cl (stereo not drawn) in your answer.
90%
